Multi-source literature compilation: pIC50 on BDNF/NT-3 growth factors receptor (Homo sapiens, UniProt Q16620).
pIC50: −log10 of the molar value.
readout-type: pIC50

Known pIC50 results, listed for orientation:
{"molecule": "COc1cc2ncnc(C3CCN(C(=O)Nc4ccc(N5CCCCC5)cc4)CC3)c2cc1OC", "observed": 5.57}
{"molecule": "CO/N=C/c1c(N)ncnc1N1CCN(C(=O)Nc2ccc(OC3CCC3)nc2)CC1", "observed": 5.46}
{"molecule": "CCN(CC)CC#Cc1ccc2ncnc(N3CCC(OC(=O)Nc4ccc(C(C)C)cc4)C3)c2c1 (stereo not drawn)", "observed": 5.44}
{"molecule": "Fc1cccc(Cc2ccc3[nH]nc(C#Cc4ccccn4)c3c2)c1F", "observed": 6.36}
{"molecule": "Fc1cc(F)cc(Oc2ccc3[nH]nc(/C=C/c4ccccn4)c3c2)c1", "observed": 7.44}
{"molecule": "CCOc1ccc(F)cc1C(C)Nc1ccn2ncc(-c3cn[nH]c3)c2n1 (stereo not drawn)", "observed": 8.37}
{"molecule": "Fc1cc(F)cc(Nc2ccc3[nH]nc(/C=C/c4ccccn4)c3c2)c1", "observed": 6.45}
{"molecule": "O=C(Nc1ccc(N2CCOCC2)nc1)N1CCC(c2ncnc3cc(OCCN4CCOC4=O)ccc23)CC1", "observed": 5.72}

(a) CN1CCN(CCCOc2ccc3c(C4CCN(C(=O)Nc5ccc(N6CCOCC6)nc5)CC4)ncnc3c2)CC1
(b) CC(C)Oc1ccc(NC(=O)N2CCC(c3ccnc4ccccc34)CC2)cc1
(c) Fc1cc(F)cc(Cc2ccc3[nH]nc(/C=C/c4ccccc4F)c3c2)c1
Prompt: Output the entries ranked by pIC50 from maximum down to minimum. I would appreciate it if you listed the labels in the requested order.
Response: c, b, a

(a) COc1cc2ncnc(C3CCN(C(=O)Nc4ccc(C5CCCCC5)cc4)CC3)c2cc1OC
(b) C[C@H]1Nc2ccn3ncc(c3n2)C(=O)OCC(F)(F)Oc2ccc(F)cc21
Prompt: Looking at recorded values for pIC50, does a or b come in lower? I would appreciate it if you answered with the label of your choice.
Response: a
